Data credit: patent US5654318A

# System: Str. pyogenes, G-36
This listing pairs compounds with measured MIC.
Value expressed in µg/mL; do not type the unit.

Field: example entries. Status: answers known.
{"compound": "O=C(O)c1cn([C@@H]2C[C@@H]2F)c2c(F)c(N3C[C@@H]4CCCN[C@@H]4C3)c(F)cc2c1=O", "measured": 0.1}
{"compound": "Nc1c(F)c(N2C[C@H]3NCCO[C@@H]3C2)c(F)c2c1c(=O)c(C(=O)O)cn2[C@@H]1C[C@@H]1F (mixture of isomers)", "measured": 0.2}
{"compound": "O=C(O)c1cn([C@@H]2C[C@@H]2F)c2c(Cl)c(N3CC4=C(CNC4)C3)c(F)cc2c1=O", "measured": 0.1}
{"compound": "O=C(O)c1cn([C@@H]2C[C@@H]2F)c2c(Cl)c(N3C[C@@H]4CCCN[C@@H]4C3)c(F)cc2c1=O", "measured": 0.05}
{"compound": "Cc1c(N2C[C@@H]3CCCN[C@@H]3C2)c(F)cc2c(=O)c(C(=O)O)cn([C@@H]3C[C@@H]3F)c12", "measured": 0.1}

Consider the additional compound presented here.
Task item: Specify measured MIC for Nc1c(F)c(N2C[C@@H]3CCCN[C@@H]3C2)c(F)c2c1c(=O)c(C(=O)O)cn2[C@@H]1C[C@@H]1F .
Reply: 0.1
